The measurements presented in this section are drawn from ChEMBL document CHEMBL1765069.

Here the recorded Emax is given for each entry.
target: Cannabinoid receptor 2 (Homo sapiens, UniProt P34972); experiment: Agonist activity at human CB2 receptor expressed in CHOK1 cells assessed as inhibition of forskolin-induced cAMP production treated 15 mins before forskolin challenge measured after 1 hr by HTRF assay relative to control; format: functional, cell-based; settings: CHO-K1
Sequence (P34972 whole entry): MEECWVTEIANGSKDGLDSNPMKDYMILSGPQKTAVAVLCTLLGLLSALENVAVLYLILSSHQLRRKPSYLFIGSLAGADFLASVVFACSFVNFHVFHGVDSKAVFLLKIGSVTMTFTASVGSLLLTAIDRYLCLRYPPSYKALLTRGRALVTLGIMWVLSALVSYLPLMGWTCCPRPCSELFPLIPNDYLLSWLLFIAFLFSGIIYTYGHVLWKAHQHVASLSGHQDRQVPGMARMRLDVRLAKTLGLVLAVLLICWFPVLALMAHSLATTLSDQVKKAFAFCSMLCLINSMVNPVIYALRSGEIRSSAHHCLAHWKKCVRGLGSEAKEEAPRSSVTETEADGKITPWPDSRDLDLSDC
Express it in %; write the number only.

O=C(c1ccc(OCC(F)(F)F)nc1)N1CC[C@@](O)(c2ccccc2)[C@@H]2CCCC[C@@H]21 (racemic) = 100

Using the record for `O=C(c1ccccc1)N1CC[C@](O)(c2ccccn2)[C@H]2CCCC[C@@H]21` , report its Emax.
65

Would you kindly repeat that for O=C1CCC(C(=O)N2CC[C@@](O)(c3ccccc3)[C@@H]3CCCC[C@@H]32)N1 (mixture of isomers) ?
102

Would you kindly repeat that for O=C(c1cccc2[nH]ncc12)N1CCC(O)(c2ccccc2)[C@@H]2CCCC[C@@H]21 (some centres undefined) ?
100
